The following molecules were reported with IC50 values on High affinity nerve growth factor receptor (Homo sapiens) in different studies.

# count of solved cases: 6
{"molecule": "CS(=O)(=O)c1ccc(F)cc1CNc1ccc(Cc2c[nH]c3ncncc23)c(F)n1", "IC50": "≤ 10000 nM"}
{"molecule": "CCOC(=O)c1c[nH]c2c(=O)[nH]c3ccc(S(=O)(=O)N(CCC#N)C4CC4)cc3c12", "IC50": "1000 to 10000 nM"}
{"molecule": "COCCN1C[C@@H](NC(=O)Nc2cc(C(C)C)nn2-c2ccccc2)[C@H](c2cccs2)C1 (relative stereo)", "IC50": "< 100 nM"}
{"molecule": "Fc1cc(OCc2nc3ccccc3[nH]2)c(F)cc1Cc1c[nH]c2ncc(Br)cc12", "IC50": "≤ 10000 nM"}
{"molecule": "CCOc1ccn(-c2ccc(F)cc2)c(=O)c1C(=O)Nc1ccc(Oc2ccnc3cc(OCCCN(C)CCOC)c4c(c23)OCCO4)c(F)c1", "IC50": "< 50 nM"}
{"molecule": "CCOc1nn(-c2ccccc2)c(NC(=O)N[C@@H]2CN(CC(O)C(F)(F)F)C[C@H]2c2ccc(F)c(F)c2)c1C (stereo partly shown)", "IC50": "1000 to 10000 nM"}

In the following, a different molecule is considered.
Summary: Cc1c(C#Cc2cnc3cccnn23)cccc1C(=O)Nc1cccc(C(F)(F)F)c1 , High affinity nerve growth factor receptor (Homo sapiens), IC50 = 100 to 1000 nM

---

The following molecules were reported with pIC50 values on High affinity nerve growth factor receptor (Homo sapiens, UniProt P04629) in different studies.
pIC50: −log10 of the molar value.

# count of solved cases: 3
{"molecule": "COCCN1C[C@@H](NC(=O)Nc2sc(C(C)C)nc2-c2ccccc2)[C@H](c2ccc(F)c(F)c2)C1", "pIC50": "> 7.00"}
{"molecule": "COCCN1C[C@@H](NC(=O)Nc2c(C)c(C)nn2-c2ccccc2)[C@H](c2ccc(F)c(F)c2)C1", "pIC50": "> 7.00"}
{"molecule": "COCCN1C[C@@H](NC(=O)Nc2c(C)c(OC[C@H](O)CO)nn2-c2ccccc2)[C@H](c2ccc(F)c(F)c2)C1", "pIC50": "> 7.00"}

Summary: COCCCc1cc(Cl)c(Cl)cc1NC(=O)Nc1c(C)c(OCCN2CCN(C)CC2)nn1-c1ccccc1 , High affinity nerve growth factor receptor (Homo sapiens, UniProt P04629), pIC50 = > 7.00

Summary: COCCN1C[C@@H](NC(=O)Nc2c(Br)c(C)nn2-c2ccccc2)[C@H](c2cncc(F)c2)C1 , High affinity nerve growth factor receptor (Homo sapiens, UniProt P04629), pIC50 = > 7.00

Summary: COCCN1C[C@@H](NC(=O)Nc2c(C)c(-c3cnn(C)c3)nn2-c2ccccc2)[C@H](c2cccc(Cl)c2)C1 (relative stereo) , High affinity nerve growth factor receptor (Homo sapiens, UniProt P04629), pIC50 = > 7.00

---

The following molecules were reported with IC50 values on High affinity nerve growth factor receptor (Homo sapiens, UniProt P04629) in different studies.
metric: IC50 (nM)

# count of solved cases: 3
{"molecule": "Cn1ncc2cc(NC(=O)c3coc4c3C(=O)NCC4)ccc21", "observed": 64}
{"molecule": "CNC(=O)c1ccc(-c2cc(O[C@H](C)C(F)(F)F)c3c(N)n[nH]c3c2)cc1N1CCN(C2CCCCC2)CC1", "observed": 80}
{"molecule": "CCOc1nc(N2CCN(C(C)=O)CC2)ccc1NC(=O)c1coc2c1C(=O)N(CCOC)C(C)(C)C2", "observed": 4.7}

(A) Cc1cccc(/C=C/c2n[nH]c3ccc(Cc4cc(F)cc(F)c4)cc23)n1
(B) O=C(Nc1ccon1)c1coc2c1C(=O)NCC2
(C) CCOc1nc(N2CCN(C(C)=O)CC2)ccc1NC(=O)c1coc2c1C(=O)N(CCCO)CC2
(D) Cn1cc2cc(NC(=O)c3coc4c3C(=O)CC(C)(C(N)=O)C4)ccc2n1 (stereo not shown)
(E) C[C@H]1Nc2ccn3ncc(c3n2)C(=O)N[C@H]2C[C@H](C2)Oc2ncccc21
Input line: Sequence the entries by IC50, beginning with the highest number. Reply format: the labels, ordered as requested.
Output line: B, E, D, A, C
(B: 8010 nM, E: 320 nM, D: 58 nM, A: 10.6 nM, C: 4.7 nM)
